Recorded values, source patent US10597388B2.

Recorded Lambsquarters plant response rating for the following compounds
Test system: lambsquarters (Chenopodium album)
Measurement Protocol: Test D controlled growth environment herbicide test, pre- and postemergence
Type: in vivo
Experimental Parameters: Postemergence, 31 g ai/ha; scale 0 to 100 (0 no effect, 100 complete control)
Reply with the value as a number alone.

Here's what some known entries look like.
1. Cn1nc(Br)c(O)c(-c2cccc3ccccc23)c1=O :: 85
2. Cc1nn(C)c(=O)c(-c2ccc(F)c3ccccc23)c1O :: 70
3. Cc1ccc2ccccc2c1-c1c(OC(=O)OC(C)C)c(C)nn(C)c1=O :: 80
4. Cc1nn(C)c(=O)c(-c2cccc3ccccc23)c1O :: 60

Please report the recorded Lambsquarters plant response rating for Cc1ccc2sc(Br)c(-c3c(O)c(C)nn(C)c3=O)c2c1 .
85

Please report the recorded Lambsquarters plant response rating for Cc1cc2ccccc2c(-c2c(O)c(C)nn(C)c2=O)c1C .
90

* * *

Tested on: speedwell (bird's-eye speedwell, Veronica persica)
Measurement Protocol: Test D controlled growth environment herbicide test, pre- and postemergence
Format: in vivo
Experimental Parameters: Preemergence, 31 g ai/ha
Recorded Endpoint: Plant response rating (scale of 0 to 100), Speedwell
Reply with the value as a number alone.

1. Cc1ccc2ccccc2c1-c1c(OC(=O)OC(C)C)c(C)nn(C)c1=O :: 5
2. COC(=O)Oc1c(C)nn(C)c(=O)c1-c1c(C)sc2ccc(C)cc12 :: 65
3. Cc1nn(C)c(=O)c(-c2cccc3ccc(Br)cc23)c1O :: 70
4. Cc1nn(C)c(=O)c(-c2cccc3ccccc23)c1O :: 0
5. Cc1ccc2sc(C)c(-c3c(OC(=O)OC(C)C)c(C)nn(C)c3=O)c2c1 :: 75
6. Cc1nn(C)c(=O)c(-c2c(C)sc3c(C)cc(Cl)cc23)c1O :: 0

API: value(readout= Plant response rating (scale of 0 to 100), Speedwell, system= speedwell (bird's-eye speedwell, Veronica persica), query= Cc1nn(C)c(=O)c(-c2ccc(F)c3ccccc23)c1O )
100

* * *

System: oilseed rape (Brassica napus)
Measurement Protocol: Test D controlled growth environment herbicide test, pre- and postemergence
Format: in vivo
Experimental Parameters: Postemergence, 125 g ai/ha; visual rating on scale 0 (no effect) to 100 (complete control), 14 to 21 d
Recorded Endpoint: Plant response rating, Oilseed Rape
Reply with the value as a number alone.

Here's what some known entries look like.
1. Cc1ccc2ccccc2c1-c1c(O)c(Br)nn(C)c1=O [Compound 23] :: 65
2. CCc1sc2ccc(C)cc2c1-c1c(O)c(C)nn(C)c1=O [Compound 47] :: 55
3. CC(=O)Oc1c(C)nn(C)c(=O)c1-c1c(C)sc2ccc(Cl)cc12 [Compound 108] :: 75
4. CCCC(=O)Oc1c(C)nn(C)c(=O)c1-c1c(C)sc2ccc(C)cc12 [Compound 105] :: 25

Consider the record given below.
Please report the recorded Plant response rating, Oilseed Rape for Cc1ccc2sc(C)c(-c3c(OC(=O)OC(C)C)c(C)nn(C)c3=O)c2c1 [Compound 66] .
65

* * *

Test system: johnsongrass (Sorghum halepense)
Measurement Protocol: Test C greenhouse herbicide test, pre- and postemergence
Assay type: in vivo
Experimental Parameters: Preemergence, 250 g ai/ha; scale 0 to 100, 0 no effect, 100 complete control
Recorded Endpoint: Johnsongrass plant response rating
Reply with the value as a number alone.

Here's what some known entries look like.
1. Cc1nn(C)c(=O)c(-c2c(C)sc3ccc(Br)cc23)c1O :: 0
2. COC(=O)Oc1c(C)nn(C)c(=O)c1-c1c(C)sc2ccc(C)cc12 :: 35
3. Cc1ccc2ccccc2c1-c1c(O)c(I)nn(C)c1=O :: 20
4. Cc1ccc2ccccc2c1-c1c(O)c(Br)nn(C)c1=O :: 35

Consider the record given below.
Please report the recorded Johnsongrass plant response rating for CC(=O)Oc1c(C)nn(C)c(=O)c1-c1c(C)sc2ccc(Cl)cc12 .
20
